Recorded inhibition for the following compounds
System: HEK293
Test: Inhibition of TNFalpha-induced human NFkappaB activity in HEK293 cells at 50 uM incubated for 6 hrs followed by compound wash out measured after 5 mins by luciferase assay
Type: cell-based

Sample answers from the record:
1. CN(C)c1ccc2c3c(n(CCCNC(=O)OC(C)(C)C)c(=O)c2c1)-c1ccccc1C3=O	25.9%
2. CC(=O)Nc1ccc2c3c(n(CCCO)c(=O)c2c1)-c1ccccc1C3=O	53.9%
3. CNc1ccc2c3c(n(CCCNC(=O)OC(C)(C)C)c(=O)c2c1)-c1ccccc1C3O (stereo not given)	83.4%

Per the record, `CNc1ccc2c3c(n(CCCNC(=O)OC(C)(C)C)c(=O)c2c1)-c1ccccc1C3=O` has inhibition of 53.9%

Measured inhibition, `O=C1c2ccccc2-c2c1c1ccc([N+](=O)[O-])cc1c(=O)n2CCCO` : 72.8%

---

System: HEK293
Test: Inhibition of TNFalpha-induced human NFkappaB activity in HEK293 cells at 50 uM incubated for 6 hrs followed by compound wash out measured after 5 mins by luciferase assay
Type: cell-based
criterion met means recorded inhibition is 50% or above; criterion not met means it is below 50%.

1) CNCCCn1c2c(c3ccc(N)cc3c1=O)C(O)c1ccccc1-2 (stereo not given)	criterion met
2) CNCCCn1c2c(c3ccc(N)cc3c1=O)C(=O)c1ccccc1-2	criterion met
3) CN(C)c1ccc2c3c(n(CCCN)c(=O)c2c1)-c1ccccc1C3=O	criterion met
4) NCCCn1c2c(c3ccc(N)cc3c1=O)C(O)c1ccccc1-2 (stereo not given)	criterion met
5) CC(=O)NCCCn1c2c(c3ccc(N)cc3c1=O)C(=O)c1ccccc1-2	criterion met
6) CC(=O)Nc1ccc2c3c(n(CCCN=[N+]=[N-])c(=O)c2c1)-c1ccccc1C3=O	criterion not met

Query: Please check the record CC(=O)Nc1ccc2c3c(n(CCCN)c(=O)c2c1)-c1ccccc1C3O (stereo not given) and state if its inhibition is at or above 50%.
Reply: criterion not met

Query: Evaluate `O=C1c2ccccc2-c2c1c1ccc([N+](=O)[O-])cc1c(=O)n2CCCBr` : inhibition at minimum 50%?
Reply: criterion not met

Query: Decide: is the reported value of inhibition for `Nc1ccc2c3c(n(CCCO)c(=O)c2c1)-c1ccccc1C3=O` equal to or greater than 50%?
Reply: criterion met

Query: API: above_or_equal(metric=inhibition, cutoff=50%) for item `CC(=O)Nc1ccc2c3c(n(CCCN)c(=O)c2c1)-c1ccccc1C3=O`
Reply: criterion not met

---

Test: Drug metabolism in Sprague-Dawley rat assessed as parent compound level in liver at 40 mg/kg, po administered 3 days
Format: ADME, organism-based
Design: dose 40 mg/kg, route oral
Details: read-out: Drug metabolism
RECORDED_ENDPOINT: concentration at 72 h (ng/g)
Write the value in ng/g as a bare number.

`NCCCn1c2c(c3ccc(N)cc3c1=O)C(=O)c1ccccc1-2` has a reported concentration at 72 h of 4300

---

Assay: Cytotoxicity against african green monkey COS1 cells assessed as cell survival at 50 uM relative to control
Assay type: cell-based
Settings: chlorocebus aethiops, COS-1 cells; read-out: Survival
RECORDED_ENDPOINT: viability at 50 µM

1) CNc1ccc2c3c(n(CCCN)c(=O)c2c1)-c1ccccc1C3O (centres undefined)	63.6%
2) NCCCn1c2c(c3ccc(N)cc3c1=O)C(=O)c1ccccc1-2	58.6%
3) CNc1ccc2c3c(n(CCCNC(=O)OC(C)(C)C)c(=O)c2c1)-c1ccccc1C3O (centres undefined)	67.5%
4) CC(=O)NCCCn1c2c(c3ccc([N+](=O)[O-])cc3c1=O)C(=O)c1ccccc1-2	99.4%
5) CC(=O)Nc1ccc2c3c(n(CCCN=[N+]=[N-])c(=O)c2c1)-c1ccccc1C3=O	93.1%

Now turn to the next molecule.
molecule `Nc1ccc2c3c(n(CCCO)c(=O)c2c1)-c1ccccc1C3=O` , viability at 50 µM observed: 85.9%

---

Assay: Cytotoxicity against african green monkey COS1 cells assessed as cell survival at 50 uM relative to control
Assay type: cell-based
Settings: chlorocebus aethiops, COS-1 cells; read-out: Survival
Below is a list of entries, each paired with its recorded viability at 50 µM value.

1. CNc1ccc2c3c(n(CCCN)c(=O)c2c1)-c1ccccc1C3=O	< 50%
2. CC(=O)Nc1ccc2c3c(n(CCCN)c(=O)c2c1)-c1ccccc1C3O (stereo not given)	83.7%
3. CN(C)c1ccc2c3c(n(CCCNC(=O)OC(C)(C)C)c(=O)c2c1)-c1ccccc1C3=O	102%

For this compound ( Nc1ccc2c3c(n(CCCO)c(=O)c2c1)-c1ccccc1C3O (stereo not given) ), measured viability at 50 µM is 86.9%

Input `CNCCCn1c2c(c3ccc(N)cc3c1=O)C(=O)c1ccccc1-2` . Output viability at 50 µM: 64.5%

Lookup result for `CC(C)(C)OC(=O)NCCCn1c2c(c3ccc(N)cc3c1=O)C(=O)c1ccccc1-2` ; measured viability at 50 µM: 104%

Lab note: measured viability at 50 µM of `O=C1c2ccccc2-c2c1c1ccc([N+](=O)[O-])cc1c(=O)n2CCCO` was 91.4%

Record `Nc1ccc2c3c(n(CCCCl)c(=O)c2c1)-c1ccccc1C3=O` . Reported viability at 50 µM: 102%

Short answer for NCCCn1c2c(c3ccc(N)cc3c1=O)C(O)c1ccccc1-2 (stereo not given) : viability at 50 µM was 87.5%

Query CNCCCn1c2c(c3ccc(N)cc3c1=O)C(O)c1ccccc1-2 (stereo not given) yields viability at 50 µM of 84.1%

---

Assay: Drug metabolism in Sprague-Dawley rat assessed as parent compound level in mammary gland at 40 mg/kg, po administered 3 days
Assay type: ADME, organism-based
Design: dose 40 mg/kg, route oral
Conditions: read-out: Drug metabolism
RECORDED_ENDPOINT: concentration at 72 h (ng/g)
// return numeric value only (unit: ng/g, not printed)

The reported value for `NCCCn1c2c(c3ccc(N)cc3c1=O)C(=O)c1ccccc1-2` in terms of concentration at 72 h is 300

---

Tested on: HEK293
Assay: Inhibition of TNFalpha-induced human NFkappaB activity in HEK293 cells at 50 uM incubated for 6 hrs followed by compound wash out measured after 5 mins by luciferase assay
Format: cell-based
Label t when inhibition is at or above 80%; anything below gets f.

These solved cases illustrate the format of a correct answer.
1) CC(=O)NCCCn1c2c(c3ccc([N+](=O)[O-])cc3c1=O)C(=O)c1ccccc1-2	t
2) CC(C)(C)OC(=O)NCCCn1c2c(c3ccc(N)cc3c1=O)C(=O)c1ccccc1-2	f
3) NCCCn1c2c(c3ccc(N)cc3c1=O)C(=O)c1ccccc1-2	t
4) CNc1ccc2c3c(n(CCCN)c(=O)c2c1)-c1ccccc1C3O (stereo not given)	f
5) CNc1ccc2c3c(n(CCCN)c(=O)c2c1)-c1ccccc1C3=O	f
6) Nc1ccc2c3c(n(CCCCl)c(=O)c2c1)-c1ccccc1C3=O	f

Query: Dear colleague, could you confirm whether `CNCCCn1c2c(c3ccc([N+](=O)[O-])cc3c1=O)C(=O)c1ccccc1-2` has inhibition at or above 80%?
Reply: t

Query: Evaluate Nc1ccc2c3c(n(CCCO)c(=O)c2c1)-c1ccccc1C3O (stereo not given) : inhibition at minimum 80%?
Reply: f

Query: Test whether the molecule `CC(C)(C)OC(=O)NCCCn1c2c(c3ccc([N+](=O)[O-])cc3c1=O)C(=O)c1ccccc1-2` records inhibition of 80% or higher.
Reply: f

---

Assay: Cytotoxicity against human HEK293 cells assessed as cell survival at 50 uM relative to control
Format: cell-based
Settings: read-out: Survival
Reported viability at 50 µM values are given for each entry in this list.
Numeric answer only, unit % assumed.

Consider the reported viability at 50 µM for these compounds:
1) O=C1c2ccccc2-c2c1c1ccc([N+](=O)[O-])cc1c(=O)n2CCCO	114
2) CNc1ccc2c3c(n(CCCN)c(=O)c2c1)-c1ccccc1C3=O	99.4
3) Nc1ccc2c3c(n(CCCO)c(=O)c2c1)-c1ccccc1C3=O	116
4) CNCCCn1c2c(c3ccc([N+](=O)[O-])cc3c1=O)C(=O)c1ccccc1-2	79.7
5) O=C1c2ccccc2-c2c1c1ccc([N+](=O)[O-])cc1c(=O)n2CCCBr	118
6) CC(=O)Nc1ccc2c3c(n(CCCO)c(=O)c2c1)-c1ccccc1C3=O	128
7) CC(C)(C)OC(=O)NCCCn1c2c(c3ccc(N)cc3c1=O)C(=O)c1ccccc1-2	107
8) CC(=O)NCCCn1c2c(c3ccc([N+](=O)[O-])cc3c1=O)C(=O)c1ccccc1-2	69.1

// sample `CN(C)c1ccc2c3c(n(CCCNC(=O)OC(C)(C)C)c(=O)c2c1)-c1ccccc1C3=O` , its viability at 50 µM was 97.6

Recorded viability at 50 µM (compound `NCCCn1c2c(c3ccc(N)cc3c1=O)C(=O)c1ccccc1-2` ): 109

Reported viability at 50 µM ( `CN(C)c1ccc2c3c(n(CCCN)c(=O)c2c1)-c1ccccc1C3=O` ) = 110

Record CNc1ccc2c3c(n(CCCN)c(=O)c2c1)-c1ccccc1C3O (stereo not given) , field viability at 50 µM: 95

viability at 50 µM measured on CNc1ccc2c3c(n(CCCNC(=O)OC(C)(C)C)c(=O)c2c1)-c1ccccc1C3O (stereo not given) = 90.1

Notebook: `Nc1ccc2c3c(n(CCCCl)c(=O)c2c1)-c1ccccc1C3=O` , viability at 50 µM read as 91.4

GET /value?item= `CC(=O)Nc1ccc2c3c(n(CCCN=[N+]=[N-])c(=O)c2c1)-c1ccccc1C3=O` &field=viability at 50 µM returns 115

Kindly note the recorded viability at 50 µM for `CC(C)(C)OC(=O)NCCCn1c2c(c3ccc([N+](=O)[O-])cc3c1=O)C(=O)c1ccccc1-2` , which is 101

Summary for this compound, `CC(=O)NCCCn1c2c(c3ccc(N)cc3c1=O)C(=O)c1ccccc1-2` : viability at 50 µM is 106

Memo: CC(=O)Nc1ccc2c3c(n(CCCN)c(=O)c2c1)-c1ccccc1C3O (stereo not given) , reported viability at 50 µM: 99.2

// CNCCCn1c2c(c3ccc(N)cc3c1=O)C(O)c1ccccc1-2 (stereo not given) : viability at 50 µM value = 90.1

So, `CC(=O)Nc1ccc2c3c(n(CCCN)c(=O)c2c1)-c1ccccc1C3=O` ? Its viability at 50 µM was 122

Note to self: viability at 50 µM recorded for `CNc1ccc2c3c(n(CCCNC(=O)OC(C)(C)C)c(=O)c2c1)-c1ccccc1C3=O` was 68.6

Lookup result for Nc1ccc2c3c(n(CCCO)c(=O)c2c1)-c1ccccc1C3O (stereo not given) ; measured viability at 50 µM: 118

So, `CNCCCn1c2c(c3ccc(N)cc3c1=O)C(=O)c1ccccc1-2` ? Its viability at 50 µM was 117
